The origin of these recorded values is patent US7790762B2.

Task for the reader: assign each of the following compounds its reported Int. GSH % con..
- Tested on: PC-3 cells
- assay notes: Intracellular GSH levels by HPLC-EC in PC-3 cells
- Format: cell-based, human
- run parameters: PC-3, 25 μM, 24 hours treatment
Answers are plain numbers, in % con..

Dear colleague, could you please provide Int. GSH % con. for the compounds listed below?
1. COc1cc2c(cc1O)CC[C@@H]1[C@@H]2CC[C@]2(C)[C@@H](O)CC[C@@H]12 [2-ME, 2-methoxyestradiol, reference compound]
2. O=c1c(O)c(-c2ccc(O)cc2)oc2cc(O)cc(O)c12 [Kaempferol, 3,5,7,4′quadrahydroxyflavone]
3. O=c1c(O)c(-c2ccc(O)c(O)c2)oc2cc(O)cc(O)c12
4. O=c1cc(-c2ccc(O)cc2)oc2cc(O)cc(O)c12
5. COc1ccc(-c2coc3cc(O)cc(O)c3c2=O)cc1

[68, 77, 95, 32, 81]
